Measured kd accompanies every entry in the list below.
# TARGET_DESC: Cyno FGFR2b
# ASSAY_EXPLANATION: SPR affinity determination, cyno FGFR2b (Example 9)
# Type: binding
State just the number; it will be interpreted in S^−1.

1) BGAh9239: humanized anti-FGFR2b IgG1 antibody from murine BGAm1823; VH SEQ ID NO: 9, VL SEQ ID NO: 10 (antibody, V domains shown, Synthetic: VH AA; Synthetic: VL AA) VH: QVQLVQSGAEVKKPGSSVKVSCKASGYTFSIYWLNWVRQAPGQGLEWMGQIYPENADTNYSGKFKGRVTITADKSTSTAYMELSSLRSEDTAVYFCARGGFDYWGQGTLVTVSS VL: DIQMTQSPSSLSASVGDRVTITCRASENIYSNLAWYQQKPGKAPKLLIYTATNLAEGVPSRFSGSGSGTDFTLTISSLQPEDFATYYCQHFYGILYTFGQGTRLEIK :: 2.72E−03

Please fill in: kd reported for BGAh9179: humanized anti-FGFR2b IgG1 antibody from murine BGAm1371; VH SEQ ID NO: 21, VL SEQ ID NO: 22 (antibody, V domains shown, Synthetic: VH AA; Synthetic: VL AA) VH: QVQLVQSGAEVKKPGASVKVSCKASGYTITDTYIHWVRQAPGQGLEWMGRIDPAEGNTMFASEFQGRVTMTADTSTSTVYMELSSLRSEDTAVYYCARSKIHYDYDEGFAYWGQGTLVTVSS VL: DIVLTQSPDSLAVSLGERATINCRASESVDDYGYSFLHWYQQKPGQPPKLLIYRASNLESGVPDRFSGSGSGTDFTLTISSLQAEDVAVYYCQQSNQNPRTFGGGTKVEIK = 1.72E−03

Briefly, kd measured for BGAm1371: parental murine anti-FGFR2b antibody (parental mouse clone); VH SEQ ID NO: 32, VL SEQ ID NO: 34 (antibody, V domains shown, Synthetic: VH AA; Synthetic: VL AA) VH: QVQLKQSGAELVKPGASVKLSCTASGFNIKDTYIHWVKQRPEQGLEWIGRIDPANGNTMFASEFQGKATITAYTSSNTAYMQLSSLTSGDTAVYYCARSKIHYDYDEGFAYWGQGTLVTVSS VL: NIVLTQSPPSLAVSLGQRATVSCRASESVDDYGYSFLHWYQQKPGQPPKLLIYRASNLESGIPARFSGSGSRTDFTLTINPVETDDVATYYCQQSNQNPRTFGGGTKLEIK : 1.25E−03
